- Test system: L1210 leukemia ip in BDF1 mice, survival T/C
- Experiment Notes: NCI In Vivo Anticancer Drug Screen. Data for tumor model L1210 Leukemia (intraperitoneal) in B6D2F1 (BDF1) mice
- Experimental Setup: endpoint: mean survival time; dose: 400.0 mg/kg/injection; schedule: Q01DX001 (ip); vehicle: saline with Tween-80; higher = longer survival
Inconclusive results and toxic doses are left out.
Below, each entry is listed alongside its reported T/C.

Would you please look over these solved cases?
{"columns": ["Molecule", "T/C"],
 "data": [
  ["CSc1ccccc1N=Cc1c(N)ccc(C)c1C", "98 % of control"],
  ["O=C(OCC(O)C(O)C(O)C(O)COC(=O)c1ccccc1)c1ccccc1 (stereo not given) (tested in a mixture with another compound)", "90 % of control"],
  ["Nc1ncnc(N)c1N", "98 % of control"]
]}

Exercise: Using the record for CCC(/C=C\C(C)C1CCC2C3C=CC45CC4CCC5(C)C3CCC12C)C(C)C (stereo not given) , report its T/C.
Key: 86 % of control

Exercise: Using the record for CC12CCC(CC1)C(O)C2 (stereo not given) , report its T/C.
Key: 98 % of control

Exercise: Using the record for O=c1ccn(-c2ccccc2)c(=S)[nH]1 , report its T/C.
Key: 100 % of control

Exercise: Using the record for CC1(C)C2CCC(I)(C2)C1O (stereo not given) , report its T/C.
Key: 105 % of control

Exercise: Using the record for C/C=C/CS(=O)(=O)Cc1ccccc1 , report its T/C.
Key: 103 % of control

Exercise: Using the record for CCOC(=O)C(C)(C)Oc1ccc(O)cc1 , report its T/C.
Key: 97 % of control

Exercise: Using the record for CC(C)CC(=O)C=C(C(F)(F)F)C(F)(F)F , report its T/C.
Key: 93 % of control

====

- Test system: L1210 leukemia ip in BDF1 mice, survival T/C
- Experiment Notes: NCI In Vivo Anticancer Drug Screen. Data for tumor model L1210 Leukemia (intraperitoneal) in B6D2F1 (BDF1) mice
- Experimental Setup: endpoint: mean survival time; dose: 400.0 mg/kg/injection; schedule: Q01DX001 (ip); vehicle: other; higher = longer survival
Inconclusive results and toxic doses are left out.
Quantity Kind: T/C

{"columns": ["Compound", "Test Value"],
 "data": [
  ["Nc1cncc2ncc(-c3ccc(Cl)c(Cl)c3)nc12", "100 % of control"],
  ["CCCCCCCCC(=O)Nc1nc2nc[nH]c2c(=O)[nH]1", "86 % of control"],
  ["CC(=O)Nc1cc(NC(C)=O)c2nc(CN(C)c3ccc(C(=O)O)cc3)cnc2n1", "97 % of control"]
]}

Exercise: Using the record for CC(C)C(C)C(N)C(=O)O (stereo not given) , report its T/C.
Key: 106 % of control

Exercise: Using the record for CCOC(=O)C(C)(c1c(C)n(C)c2ccccc12)c1c(C)n(C)c2ccccc12 , report its T/C.
Key: 91 % of control

====

Below, each entry is listed alongside its reported T/C.
- Test system: L1210 leukemia ip in BDF1 mice, survival T/C
- Experiment Notes: NCI In Vivo Anticancer Drug Screen. Data for tumor model L1210 Leukemia (intraperitoneal) in B6D2F1 (BDF1) mice
- Experimental Setup: endpoint: mean survival time; dose: 100.0 mg/kg/injection; schedule: Q01DX001 (ip); vehicle: carboxymethylcellulose (CMC); higher = longer survival
Inconclusive results and toxic doses are left out.

{"columns": ["Structure Smiles", "T/C"],
 "data": [
  ["CCCCCCCCOC(=O)Nc1ccc(S(=O)(=O)NC2CCCCC2)cc1", "89 % of control"]
]}

Exercise: Under L1210 leukemia ip in BDF1 mice, survival T/C: T/C value of CC(=O)NCC(=O)c1ccc(S(=O)(=O)c2ccccc2)cc1 ?
Key: 98 % of control

Exercise: Under L1210 leukemia ip in BDF1 mice, survival T/C: T/C value of O=C(Nc1c(Br)cc2c(c1Br)Cc1cc(Br)ccc1-2)C(Cl)Cl ?
Key: 98 % of control

Exercise: Under L1210 leukemia ip in BDF1 mice, survival T/C: T/C value of CCCCCCCC(=O)N(C(C)C)C(C)C ?
Key: 108 % of control

Exercise: Under L1210 leukemia ip in BDF1 mice, survival T/C: T/C value of O=c1cc(-c2c(O)cc(O)cc2O)oc2cc(O)cc(O)c12 ?
Key: 94 % of control

Exercise: Under L1210 leukemia ip in BDF1 mice, survival T/C: T/C value of O/N=C1\c2ccccc2-c2ccc(Cl)cc21 ?
Key: 95 % of control

====

- System: L1210 leukemia ip in BDF1 mice, survival T/C
- Experiment Notes: NCI In Vivo Anticancer Drug Screen. Data for tumor model L1210 Leukemia (intraperitoneal) in B6D2F1 (BDF1) mice
- Experimental Setup: endpoint: mean survival time; dose: 100.0 mg/kg/injection; schedule: Q04DX002 (ip); vehicle: saline; higher = longer survival
Toxic doses and inconclusive results are not listed.
Below, each entry is listed alongside its reported T/C.

{"columns": ["Compound", "T/C"],
 "data": [
  ["CCCCCCCCCN1CCCC(OC(=O)N(C)C)C1 (configuration not stated)", "100 % of control"],
  ["CC1(C)OCC(C2OC(N)C3OC(C)(C)OC32)O1 (configuration not stated)", "97 % of control"],
  ["Cc1cnc(/C=N/NC(N)=S)cn1", "99 % of control"]
]}

Exercise: Using the record for NC(=O)C1CCNCC1 , report its T/C.
Key: 108 % of control

Exercise: Using the record for COCC(=O)O , report its T/C.
Key: 102 % of control

Exercise: Using the record for CCC1(c2ccccc2)OC1C(=O)OCC(C)C (configuration not stated) , report its T/C.
Key: 112 % of control

Exercise: Using the record for CSc1nc(N(C)C)c2ncn(C3OC(C[N+](=O)[O-])C(OC(C)=O)C(OC(C)=O)C3OC(C)=O)c2n1 (configuration not stated) , report its T/C.
Key: 112 % of control

====

- Tested on: L1210 leukemia ip in BDF1 mice, survival T/C
- Experiment Notes: NCI In Vivo Anticancer Drug Screen. Data for tumor model L1210 Leukemia (intraperitoneal) in B6D2F1 (BDF1) mice
- Experimental Setup: endpoint: mean survival time; dose: 50.0 mg/kg/injection; schedule: Q01DX001 (ip); vehicle: saline with Tween-80; higher = longer survival
Inconclusive results and toxic doses are left out.
Quantity Kind: T/C

Exercise: Using the record for Nc1nc(=O)n(CCCOc2ccc(NC(=O)Nc3cccc(S(=O)(=O)F)c3)cc2)cc1-c1ccc(Cl)c(Cl)c1 , report its T/C.
Key: 98 % of control

====

- Test system: L1210 leukemia ip in BDF1 mice, survival T/C
- Experiment Notes: NCI In Vivo Anticancer Drug Screen. Data for tumor model L1210 Leukemia (intraperitoneal) in B6D2F1 (BDF1) mice
- Experimental Setup: endpoint: mean survival time; dose: 12.5 mg/kg/injection; schedule: Q04DX003 (ip); vehicle: saline; higher = longer survival
Inconclusive results and toxic doses are left out.
Below, each entry is listed alongside its reported T/C.

Would you please look over these solved cases?
{"columns": ["Compound", "T/C"],
 "data": [
  ["Cc1c2ccccc2c(CSC(=N)N)c2ccccc12", "108 % of control"],
  ["C=CC[n+]1ccccc1Cc1ccccc1", "104 % of control"],
  ["CCC(C)C(CCCCN1CCOCC1)(CNC(=O)CN(CC)CC)c1cccc2ccccc12 (stereo not given)", "104 % of control"],
  ["COC1OC(COC(C)=O)C(OC(C)=O)C(OC(C)=O)[CH]1[Hg][O]C(C)=O (stereo not given)", "98 % of control"]
]}

Shift focus to the following entry.
Exercise: Using the record for C=CC[n+]1cccc2ccccc21 , report its T/C.
Key: 98 % of control

====

- Tested on: L1210 leukemia ip in BDF1 mice, survival T/C
- Experiment Notes: NCI In Vivo Anticancer Drug Screen. Data for tumor model L1210 Leukemia (intraperitoneal) in B6D2F1 (BDF1) mice
- Experimental Setup: endpoint: mean survival time; dose: 75.0 mg/kg/injection; schedule: Q01DX001 (ip); vehicle: carboxymethylcellulose (CMC); higher = longer survival
Inconclusive results and toxic doses are left out.
Quantity Kind: T/C

Would you please look over these solved cases?
{"columns": ["Compound", "T/C"],
 "data": [
  ["Cc1cccc(NC(=O)N(C)N)c1", "96 % of control"],
  ["CCC(CC)NC(CC)CO (stereo not given)", "101 % of control"],
  ["O=C(NCCCOc1ccc([N+](=O)[O-])cc1Cl)Nc1ccc(S(=O)(=O)F)cc1", "98 % of control"],
  ["C#C/C=C/CC1OC(C(Br)CC)CC(Br)C2CC1O2 (stereo not given)", "92 % of control"]
]}

Exercise: Using the record for CC(C)CC1NC(C)(C)CO1 (stereo not given) , report its T/C.
Key: 102 % of control
